Tested on: HeLa cells
Test: MTT cytotoxicity assay, HeLa cells
Type: cell-based
Details: Homo sapiens, 48 h incubation, * = compound precipitated at 1 mM from cell cultures
measurement-kind: IC50

Provide only the value of recorded IC50 for CC(C)NCC(O)CN1C(=O)C2C(C1=O)C1(C)C(=O)C2(C)C(c2ccccc2)=C1c1ccccc1 (stereo not shown)
90 µM

Provide only the value of recorded IC50 for CC1=CC2(C)CC(C)(C)C1C1C(=O)N(CCN(C)C)C(=O)C12 (stereo not shown)
90 µM

Provide only the value of recorded IC50 for CCN(CC)CCN1C(=O)C2C3C=CC(OC)(CC3)C2C1=O (stereo not shown)
> 1000 µM

Provide only the value of recorded IC50 for CC(C)COC12CCC(C(=O)C1)C1C(=O)N(CCCN(C)C)C(=O)C12 (stereo not shown)
> 1000 µM

Provide only the value of recorded IC50 for CCC12C(=O)C(CC)(C(c3ccccc3)=C1c1ccccc1)C1C(=O)N(CCN3CCCCC3)C(=O)C12 (stereo not shown)
> 1000 µM

Provide only the value of recorded IC50 for CC(C)COC12CCC(C(=O)C1)C1C(=O)N(CCN3CCCCC3)C(=O)C12 (stereo not shown)
> 1000 µM

Provide only the value of recorded IC50 for CCC12C(=O)C(CC)(C(c3ccccc3)=C1c1ccccc1)C1C(=O)N(CCN(C)C)C(=O)C12 (stereo not shown)
> 1000 µM

Source listed as patent EP2687509A2.
